- protocol-summary: Plasma metabolite profiling (GC-MS, LC-MS, SPE-LC-MS) of rats dosed once daily over 28 days; treatment ratios versus untreated control
- Format: in vivo, rat
- recorded-conditions: plasma, female rats, day 28, high dose, Table 6b
Marks after values point to notes of the source that are not given here.
Give measured Myristic acid (C14:0), ratio versus control for each item. Keep answers brief.

Reference set (2 entries):
[
  {
    "molecule": "CN1CCc2cccc3c2[C@H]1Cc1ccc(O)c(O)c1-3 [Apomorphine]",
    "readout-value": "0.9*"
  },
  {
    "molecule": "C=CCN1C[C@H](C(=O)N(CCCN(C)C)C(=O)NCC)C[C@@H]2c3cccc4[nH]cc(c34)C[C@H]21 [Cabergoline]",
    "readout-value": "0.33*"
  }
]

# input Any idea what Myristic acid (C14:0), ratio versus control was measured for C#C[C@]1(O)CC[C@H]2[C@@H]3CCc4cc(O)ccc4[C@H]3CC[C@@]21C [17-alpha-Ethynylestradiol] ?
# output 0.59*
